- system-tested: T1, recombinant human VEGFR2 extracellular domain (human, UniProt P35968 20-764)
- T1 construct: extracellular domain; also called KDR; Flk-1
- T1 sequence (P35968 20-764): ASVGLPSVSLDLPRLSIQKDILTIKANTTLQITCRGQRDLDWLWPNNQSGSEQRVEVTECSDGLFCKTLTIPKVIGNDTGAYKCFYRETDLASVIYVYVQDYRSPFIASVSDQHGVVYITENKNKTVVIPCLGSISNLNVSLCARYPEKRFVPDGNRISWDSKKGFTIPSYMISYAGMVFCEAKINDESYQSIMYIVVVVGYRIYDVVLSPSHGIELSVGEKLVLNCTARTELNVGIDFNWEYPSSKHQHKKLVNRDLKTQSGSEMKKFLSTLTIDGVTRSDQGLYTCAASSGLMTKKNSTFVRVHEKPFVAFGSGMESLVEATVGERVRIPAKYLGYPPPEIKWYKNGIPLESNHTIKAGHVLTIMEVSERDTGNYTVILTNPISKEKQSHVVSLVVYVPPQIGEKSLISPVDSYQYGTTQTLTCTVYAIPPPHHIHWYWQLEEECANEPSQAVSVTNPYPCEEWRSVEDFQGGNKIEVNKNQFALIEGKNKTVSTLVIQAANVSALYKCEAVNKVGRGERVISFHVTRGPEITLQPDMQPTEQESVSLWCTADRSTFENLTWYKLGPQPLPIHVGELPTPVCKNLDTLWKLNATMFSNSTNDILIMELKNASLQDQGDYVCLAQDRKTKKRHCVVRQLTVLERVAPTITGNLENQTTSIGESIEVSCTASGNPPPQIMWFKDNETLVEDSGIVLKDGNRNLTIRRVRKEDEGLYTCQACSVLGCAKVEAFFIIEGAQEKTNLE
- run-description: SPR (BIAcore 3000), VEGFR2 amine-coupled to CM5 chip, scVEGF as analyte, 1:1 model
metric-name: kon (M⁻¹ s⁻¹)
Answer in M⁻¹ s⁻¹, number only, no unit symbol.

Some solved cases for reference:
binder="scVEGF-mA (designed binder, Soluble protein from P. pastoris with C-terminal hexahistidine tag, with or without N-terminal FLAG tag (tags not included in the parts); also called scVEGFmut-A) EVAKAMDVYQKSYCHPIETLVDILQEYPDEIGYIFKPSCVPLMRCGGCCNDAGLECVPTEESNITMQIMRIKPYQGQHIGEMSFLQHNKCECRPKKDGSTSGSGKSSEGKGEVVKFMDVYQRSYCHPIETLVDIFQEYPDKIEYAFKPSCVPLMRCGGCCNNEGLECVPTEESNITMQITRAKPHQGQHIGEMSFLQHNKCECRPKKD" metric_name=kon measurement_units="M⁻¹ s⁻¹" numeric_readout=240000
binder="scVEGFmut (designed binder, scVEGF with chain 1 F17A, E64A and chain 2 I46A, I83A (VEGF121 numbering); Soluble protein from P. pastoris with C-terminal hexahistidine tag, with or without N-terminal FLAG tag) YVEVVKAMDVYQRSYCHPIETLVDIFQEYPDEIEYIFKPSCVPLMRCGGCCNDAGLECVPTEESNITMQIMRIKPHQGQHIGEMSFLQHNKCECRPKKDGSTSGSGKSSEGKGEVVKFMDVYQRSYCHPIETLVDIFQEYPDEIEYAFKPSCVPLMRCGGCCNDEGLECVPTEESNITMQIMRAKPHQGQHIGEMSFLQHNKCECRPKKDTR" metric_name=kon measurement_units="M⁻¹ s⁻¹" numeric_readout=83000
binder="scVEGF-mJ (designed binder, Soluble protein with C-terminal hexahistidine tag, with or without N-terminal FLAG tag (tags not included in the parts); also called scVEGFmut-J) EIVKARDVYQRSYCHPIETLVDILQEYPDEIEYIFKPSCVPLMRCGGCCNDAGLECVPTEESNITMQIMRIKPYQGHHIGEMSFLQHNKCECRPKKDGSTSGSGKSSEGKGEVVKFMDVYQRSYCHPIETLVDIFQEYPDEIEYAFKPSCVPLMRCGGCCNNEGLECVPTEESNITMQIMRAKPHQGQHTGEMSFLQHNKCECRPKKD" metric_name=kon measurement_units="M⁻¹ s⁻¹" numeric_readout=200000

Attention now shifts to the item below.
Query: Dear colleague, please send me the reported kon for scVEGFwt (ligand, also called wild-type scVEGF; single-chain VEGF) YVEVVKFMDVYQRSYCHPIETLVDIFQEYPDEIEYIFKPSCVPLMRCGGCCNDEGLECVPTEESNITMQIMRIKPHQGQHIGEMSFLQHNKCECRPKKDGSTSGSGKSSEGKGEVVKFMDVYQRSYCHPIETLVDIFQEYPDEIEYIFKPSCVPLMRCGGCCNDEGLECVPTEESNITMQIMRIKPHQGQHIGEMSFLQHNKCECRPKKDTR when you can.
Result: 200000
